B1: NR2F2 (parent)
chain: NIPFFPDLQITDQVALLRLTWSEL

# Variants of: B1
# Assay explanation: protein stability index of a GFP-peptide fusion (GPS, HEK-293T) (PSI 1-6); higher = more stable;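 also: lentivirally expressed fusions sorted by FACS into six bins by GFP to DsRed ratio, PSI derived from sequencing read proportions per bin multiplied by bin number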
# Condition notes: c terminus: a fixed tail appended
Below: a set of entries, each annotated with reported protein stability index.

Seq	protein stability index
NIPFFPDLQNTDQVALLRLTWSEL	2.05
NIPFFPDLQITDQVALLRLTWSRL	2.02
SIPFFPDLQITDQVALLRLTWSEL	1.75
NIPFFPDLQITDQVALLRLTWSEV	2.22
NIPFFPSLQITDQVALLRLTWSEL	3.27
NIPFHPDLQITDQVALLRLTWSEL	1.79
NIPFFPDLQITDIVALLRLTWSEL	4.15
NGPFFPDLQITDQVALLRLTWSEL	1.46
NIPFFPDLQITDQVALLRLTWAEL	2.17
YIPFFPDLQITDQVALLRLTWSEL	2.74
NIPFFPDLQITDCVALLRLTWSEL	3.12
NIPFFPDLQITDQVAQLRLTWSEL	2.33
NIPFFPDLQITDQVALLKLTWSEL	2.52
NIQFFPDLQITDQVALLRLTWSEL	3.08
NIPFFPDLQITDQCALLRLTWSEL	3.12
NIPFIPDLQITDQVALLRLTWSEL	2.26
NIPFFPDLQITDQKALLRLTWSEL	2.13
NIPFFPDLQITCQVALLRLTWSEL	2.46
NIPFFPDLQITDQVATLRLTWSEL	3.48
NIPFFPDLQITDQVALSRLTWSEL	1.79
NIPFRPDLQITDQVALLRLTWSEL	2.34
NIPFFPDLQITDQVALLRLTWSNL	3.71
NIPFFPDLQITDQQALLRLTWSEL	1.99
NIPFFPDLQITDQVALLRLTWSDL	3.12
NIPFFPDLQITDQVALVRLTWSEL	3.46
NIPFFPDLQITEQVALLRLTWSEL	3.52
NVPFFPDLQITDQVALLRLTWSEL	2.03
NIPFFPDLQITDQVALLRRTWSEL	2.08
NIPFVPDLQITDQVALLRLTWSEL	2.41
NIPFFPDLQITDQVALLRHTWSEL	1.53
NIPFFPDLSITDQVALLRLTWSEL	2.83
NIPFFPYLQITDQVALLRLTWSEL	2.79
NIPFFQDLQITDQVALLRLTWSEL	2.32
NIPFFSDLQITDQVALLRLTWSEL	2.52
NIPWFPDLQITDQVALLRLTWSEL	1.44
NIPFFPDLQITDQVILLRLTWSEL	3.62
NIPFFPDLQITAQVALLRLTWSEL	3.01
NIPFFPDLQITDQMALLRLTWSEL	2.14
